Test system: Strep. pneumoniae
Method Notes: antimicrobial activity, MIC by agar dilution method, Strep. pneumoniae
Type: cell-based
Measurement Setup: Streptococcus pneumoniae, 3 test strains, MIC refers to over 90% of tested strains, read-out: Minimal Inhibitory Concentration
Result Type: MIC90 (µg/mL)

{"Compound": "CCC1OC(=O)CC(O)C(C)C(OC2OC(C)C(OC3CC(C)(O)C(O)C(C)O3)C(N(C)C)C2O)C(CC=NO)CC(C)C(=O)C=CC(C)=CC1COC1OC(C)C(O)C(OC)C1OC (stereo not drawn)", "Result Type": "MIC90", "Unit Of Measure": "µg/mL", "Result": 0.5}

P. CCC1OC(=O)CC(O)C(C)C(OC2OC(C)C(OC3CC(C)(O)C(O)C(C)O3)C(N(C)C)C2O)C(CCO)CC(C)C(=NO)C=CC(C)=CC1COC1OC(C)C(O)C(OC)C1OC (stereo not drawn)
Q. CCC1OC(=O)CC(O)C(C)C(OC2OC(C)C(OC3CC(C)(O)C(O)C(C)O3)C(N(C)C)C2O)C(CCO)CC(C)C(=NO)CCC(C)CC1COC1OC(C)C(O)C(OC)C1OC (stereo not drawn) [XXIII, 10,11,12,13-tetrahydro relomycin oxime]
Qu. Which one would you say has the larger MIC90 value: P , or Q ? Write down the label attached to your selection.
Ans. Q
